Data export: IC50 values recorded with PIK3CG (human).

SMILES REPR | TARGET | IC50
C[C@H](Nc1ncnc2scnc12)c1cc2ccccc2c(=O)n1-c1ccccc1 | PIK3CG (human) | < 100 nM
C[C@H](Nc1ncnc2scnc12)c1cc2cccc(-c3ccc(N(C)C)nc3)c2c(=O)n1-c1ccccc1 | PIK3CG (human) | < 100 nM
COc1cncc(-c2cccc3cc([C@H](C)Nc4ncnc5scnc45)n(-c4ccccc4)c(=O)c23)c1 | PIK3CG (human) | < 100 nM

Asked: Returns the measured IC50 for the input molecule. Input: CNC(=O)c1cccc2cc([C@H](C)Nc3ncnc4scnc34)n(-c3ccccc3)c(=O)c12
Given back: > 10000 nM

Asked: // IC50 lookup, key: CC(C)n1c([C@H](C)Nc2ncnc3scnc23)cc2cccc(-c3ccnnc3)c2c1=O
Given back: > 10000 nM

Asked: May I ask what IC50 has been recorded for C[C@H](Nc1ncnc2scnc12)c1cc2cccc(Cl)c2c(=O)n1C ?
Given back: < 100 nM

* * *

Catalogue of IC50 values
TARGET: PIK3CG (human) (UniProt P48736)
Sequence (P48736 whole entry, looked up): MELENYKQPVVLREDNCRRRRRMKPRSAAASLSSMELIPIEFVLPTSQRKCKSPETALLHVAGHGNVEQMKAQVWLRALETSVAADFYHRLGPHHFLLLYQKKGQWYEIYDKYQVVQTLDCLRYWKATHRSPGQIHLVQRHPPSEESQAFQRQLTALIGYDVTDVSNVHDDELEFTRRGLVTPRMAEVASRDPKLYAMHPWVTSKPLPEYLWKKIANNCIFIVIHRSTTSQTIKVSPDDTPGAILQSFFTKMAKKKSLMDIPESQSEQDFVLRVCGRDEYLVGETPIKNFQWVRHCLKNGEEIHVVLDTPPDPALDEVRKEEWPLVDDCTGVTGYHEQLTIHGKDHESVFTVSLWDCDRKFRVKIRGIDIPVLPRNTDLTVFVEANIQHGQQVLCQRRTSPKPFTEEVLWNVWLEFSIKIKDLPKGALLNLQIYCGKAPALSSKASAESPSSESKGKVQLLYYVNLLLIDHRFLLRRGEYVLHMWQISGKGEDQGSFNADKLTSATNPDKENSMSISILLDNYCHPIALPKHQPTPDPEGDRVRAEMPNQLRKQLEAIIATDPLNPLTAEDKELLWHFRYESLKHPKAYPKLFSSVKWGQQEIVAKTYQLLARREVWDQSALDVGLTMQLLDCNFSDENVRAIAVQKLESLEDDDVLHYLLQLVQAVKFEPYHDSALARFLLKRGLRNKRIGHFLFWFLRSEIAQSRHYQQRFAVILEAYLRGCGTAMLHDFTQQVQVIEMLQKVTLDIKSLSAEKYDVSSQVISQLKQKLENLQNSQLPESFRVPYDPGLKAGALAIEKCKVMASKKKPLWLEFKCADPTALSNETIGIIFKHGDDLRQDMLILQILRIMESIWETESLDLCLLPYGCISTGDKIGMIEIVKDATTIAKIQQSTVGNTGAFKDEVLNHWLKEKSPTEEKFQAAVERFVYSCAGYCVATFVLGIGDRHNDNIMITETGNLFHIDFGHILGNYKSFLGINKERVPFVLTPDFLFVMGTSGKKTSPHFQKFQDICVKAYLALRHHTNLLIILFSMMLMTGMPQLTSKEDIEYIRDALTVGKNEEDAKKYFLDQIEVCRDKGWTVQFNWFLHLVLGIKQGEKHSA

SMILES REPR | TARGET | IC50
COc1ncc(-c2cccc3cc([C@H](C)Nc4ncnc5scnc45)n(-c4ccon4)c(=O)c23)cn1 | PIK3CG (human) (UniProt P48736) | 100 to 1000 nM
C[C@H](Nc1ncnc2scnc12)c1cc2scc(-c3cnn(C)c3)c2c(=O)n1-c1ccccc1 | PIK3CG (human) (UniProt P48736) | 100 to 1000 nM
C[C@H](Nc1ncnc2scnc12)c1cc2cccc(-c3cn[nH]c3)c2c(=O)n1-c1ccccc1 | PIK3CG (human) (UniProt P48736) | < 100 nM
C[C@H](Nc1ncnc2scnc12)c1cc2cccc(-c3cncc(F)c3)c2c(=O)n1-c1ccccc1 | PIK3CG (human) (UniProt P48736) | < 100 nM

Asked: Given the entry Cc1ccc(-c2cccc3cc([C@H](C)Nc4ncnc5scnc45)n(-c4ccccc4)c(=O)c23)cn1 , what IC50 was observed with PIK3CG (human) (UniProt P48736)?
Given back: < 100 nM

Asked: Provide value of IC50 for this record tested with PIK3CG (human) (UniProt P48736): Cc1cccc2cc([C@H](C)Nc3ncnc4scnc34)n(-c3cccc(F)c3)c(=O)c12
Given back: < 100 nM

Asked: Value wanted: IC50 (PIK3CG (human) (UniProt P48736)) of entry COc1cc(-c2cccc3cc([C@H](C)Nc4ncnc5scnc45)n(-c4ccccc4)c(=O)c23)ccn1
Given back: < 100 nM

Asked: Give PIK3CG (human) (UniProt P48736) IC50 for C[C@H](Nc1ncnc2scnc12)c1cc2cccc(-c3ccc(=O)n(C)c3)c2c(=O)n1-c1ccccc1
Given back: 100 to 1000 nM

Asked: What IC50 appears in the records for this compound with PIK3CG (human) (UniProt P48736)? C[C@H](Nc1ncnc2scnc12)c1cc2cccc(Cl)c2c(=O)n1-c1ccccc1
Given back: < 100 nM

Asked: Query the reported IC50 for PIK3CG (human) (UniProt P48736); item: C[C@H](Nc1ccnc2scnc12)c1cc2cccc(Cl)c2c(=O)n1-c1cccc(F)c1
Given back: < 100 nM

Asked: Look up IC50 with PIK3CG (human) (UniProt P48736) for this compound: C[C@H](Nc1ncnc2scnc12)c1cc2cccc(-c3cccc(N(C)C)c3)c2c(=O)n1-c1ccccc1
Given back: < 100 nM
